These entries and their values trace back to ChEMBL document CHEMBL1781927.

- Assay name: Oxidative metabolic stability in human liver microsomes assessed as compound remaining after 30 mins
- Assay type: ADME, Microsome
- Condition label: read-out: Stability
Measured parameter: remaining at 0.5 h (%)

{"Smiles code": "c1ccc2cc(-c3ccnn3-c3ccncc3)ccc2c1", "remaining at 0.5 h (%)": 2}
{"Smiles code": "c1ccc2cc(-c3nnnn3-c3ccncc3)ccc2c1", "remaining at 0.5 h (%)": 16}
{"Smiles code": "c1ccc2cc(-c3n[nH]cc3-c3ccncc3)ccc2c1", "remaining at 0.5 h (%)": 52}

a = c1ccc2cc(-c3cnnn3-c3ccncc3)ccc2c1
b = c1ccc2cc(-n3ccnc3-c3ccncc3)ccc2c1
Hi there! Just curious which has the higher remaining at 0.5 h between a and b . Indicate your choice by writing its label.
b
(b: 18%, a: 12%)

* * *

- Assay name: Solubility of the compound
- Format: physicochemical
Measured parameter: solubility (µM)

Reference set, count: 3
{"Smiles code": "Nc1cc(-c2n[nH]c(=S)n2-c2ccc3ccccc3c2)ccn1", "Result units": "µM", "solubility": 100}
{"Smiles code": "c1ccc2cc(-n3nnnc3-c3ccncc3)ccc2c1", "Result units": "µM", "solubility": 15}
{"Smiles code": "c1ccc2cc(-n3cnnc3-c3ccncc3)ccc2c1", "Result units": "µM", "solubility": 35}

P = S=c1[nH]nc(-c2ccnc(NCC3CC3)c2)n1-c1ccc2ccccc2c1
Q = N/N=c1\[nH]nc(-c2ccncc2)n1-c1ccc2ccccc2c1
Hi there! Just curious which has the higher solubility between P and Q . Indicate your choice by writing its label.
Q

* * *

- Assay name: Metabolic stability in human liver microsomes assessed as compound remaining after 60 mins in presence of UDPGA
- Assay type: ADME, Microsome
- Condition label: read-out: Stability
Measured parameter: remaining at 1 h (%)

{"Smiles code": "c1ccc2cc(-n3cnnc3-c3ccncc3)ccc2c1", "Result units": "%", "remaining at 1 h": 100}
{"Smiles code": "c1ccc2cc(-c3n[nH]cc3-c3ccncc3)ccc2c1", "Result units": "%", "remaining at 1 h": 73}

A = c1ccc2cc(-c3cnnn3-c3ccncc3)ccc2c1
B = S=c1[nH]nc(-c2ccncc2)n1-c1ccc2ccccc2c1
Hi there! Just curious which has the higher remaining at 1 h between A and B . Indicate your choice by writing its label.
A
(A: 78%, B: 8%)

* * *

- Assay name: Oxidative metabolic stability in mouse liver microsomes assessed as compound remaining after 30 mins
- Format: ADME, Microsome
- Condition label: read-out: Stability
Measured parameter: remaining at 0.5 h (%)

{"Smiles code": "c1ccc2cc(-n3cnnc3-c3ccncc3)ccc2c1", "remaining at 0.5 h (%)": 76}

1 = Clc1nnn(-c2ccncc2)c1-c1ccc2ccccc2c1
2 = c1ccc2cc(-c3[nH]nnc3-c3ccncc3)ccc2c1
Could you check which of 1 and 2 has a smaller value for remaining at 0.5 h? Indicate your choice by writing its label.
1

P = c1ccc2cc(-n3nccc3-c3ccncc3)ccc2c1
Q = S=c1[nH]nc(-c2ccncc2)n1-c1ccc2ccccc2c1
Hi there! Just curious which has the higher remaining at 0.5 h between P and Q . Indicate your choice by writing its label.
Q
(Q: 100%, P: 11%)

* * *

- System tested: Mitogen-activated protein kinase 8 (Homo sapiens)
- Sequence (P45983 whole entry): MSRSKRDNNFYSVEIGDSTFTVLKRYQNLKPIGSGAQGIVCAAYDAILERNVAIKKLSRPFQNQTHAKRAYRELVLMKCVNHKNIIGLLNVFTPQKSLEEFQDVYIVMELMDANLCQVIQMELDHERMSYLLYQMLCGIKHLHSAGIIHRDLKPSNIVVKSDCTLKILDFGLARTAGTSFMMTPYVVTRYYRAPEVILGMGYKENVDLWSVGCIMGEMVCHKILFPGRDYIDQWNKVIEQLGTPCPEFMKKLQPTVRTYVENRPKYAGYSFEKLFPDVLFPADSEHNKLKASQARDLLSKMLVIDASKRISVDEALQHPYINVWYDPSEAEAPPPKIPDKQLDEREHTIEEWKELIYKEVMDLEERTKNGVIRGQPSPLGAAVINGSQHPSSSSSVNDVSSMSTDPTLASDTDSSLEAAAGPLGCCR
- Assay name: Inhibition of JNK1 by TR-FRET assay
Measured parameter: IC50

The molecule identified as Fc1cnccc1-c1n[nH]c(=S)n1-c1ccc2ccccc2c1 registered its IC50 at > 50 µM

The molecule identified as Cc1cc(-c2n[nH]c(=S)n2-c2ccc3ccccc3c2)ccn1 registered its IC50 at > 50 µM

The molecule identified as N/N=c1\[nH]nc(-c2ccncc2)n1-c1ccc2ccccc2c1 registered its IC50 at > 50 µM

The molecule identified as c1ccc2cc(-c3ncncc3-c3ccncc3)ccc2c1 registered its IC50 at > 50 µM

The molecule identified as c1ccc2cc(-c3nnnn3-c3ccncc3)ccc2c1 registered its IC50 at > 50 µM

The molecule identified as S=c1[nH]nc(-c2ccncc2)n1-c1ccc2ncccc2c1 registered its IC50 at > 50 µM

The molecule identified as Clc1nnc(-c2ccncc2)n1-c1ccc2ccccc2c1 registered its IC50 at > 50 µM

The molecule identified as Cc1nnc(-c2ccncc2)n1-c1ccc2ccccc2c1 registered its IC50 at > 50 µM

The molecule identified as FC(F)(F)c1nnc(-c2ccncc2)n1-c1ccc2ccccc2c1 registered its IC50 at > 50 µM

The molecule identified as c1ccc2cc(-c3ccnn3-c3ccncc3)ccc2c1 registered its IC50 at 41.9 µM

The molecule identified as c1ccc2cc(-c3[nH]nnc3-c3ccncc3)ccc2c1 registered its IC50 at 6.85 µM

The molecule identified as c1ccc2cc(-c3cnnn3-c3ccncc3)ccc2c1 registered its IC50 at > 50 µM

* * *

- System tested: Mitogen-activated protein kinase 9 (Homo sapiens)
- Sequence (P45984 whole entry): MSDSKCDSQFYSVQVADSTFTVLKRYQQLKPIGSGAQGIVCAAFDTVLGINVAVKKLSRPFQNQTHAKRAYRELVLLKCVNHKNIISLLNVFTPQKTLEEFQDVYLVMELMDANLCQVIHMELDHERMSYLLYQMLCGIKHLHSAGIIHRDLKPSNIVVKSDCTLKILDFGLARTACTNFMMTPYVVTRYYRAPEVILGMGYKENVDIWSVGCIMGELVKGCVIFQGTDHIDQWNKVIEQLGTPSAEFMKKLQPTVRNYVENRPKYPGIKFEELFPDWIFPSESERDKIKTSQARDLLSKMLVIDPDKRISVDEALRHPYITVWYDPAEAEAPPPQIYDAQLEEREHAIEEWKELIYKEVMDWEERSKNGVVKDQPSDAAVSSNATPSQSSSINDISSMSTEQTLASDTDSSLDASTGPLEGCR
- Assay name: Inhibition of JNK2 by TR-FRET assay
pIC50: −log10 of the molar value.
Measured parameter: pIC50

Reference set, count: 4
{"Smiles code": "c1ccc2cc(-n3nncc3-c3ccncc3)ccc2c1", "pIC50": 5.04}
{"Smiles code": "S=c1[nH]nc(-c2ccnc(NC3CCCCC3)c2)n1-c1ccc2ccccc2c1", "pIC50": 7.18}
{"Smiles code": "Fc1cnccc1-c1n[nH]c(=S)n1-c1ccc2ccccc2c1", "pIC50": 4.46}
{"Smiles code": "N/N=c1\\[nH]nc(-c2ccncc2)n1-c1ccc2ccccc2c1", "pIC50": 4.47}

P = c1ccc2cc(-c3ccnn3-c3ccncc3)ccc2c1
Q = Cc1cc(-c2n[nH]c(=S)n2-c2ccc3ccccc3c2)ccn1
Could you check which of P and Q has a smaller value for pIC50? Indicate your choice by writing its label.
Q
(Q: 4.82, P: 5.03)

a = Cc1nnc(-c2ccncc2)n1-c1ccc2ccccc2c1
b = c1ccc2cc(-c3[nH]nnc3-c3ccncc3)ccc2c1
Could you check which of a and b has a smaller value for pIC50? Indicate your choice by writing its label.
a
(a: 4.34, b: 5.91)

I = Clc1nnn(-c2ccncc2)c1-c1ccc2ccccc2c1
II = c1ccc2cc(-n3cnnc3-c3ccncc3)ccc2c1
III = Nc1cc(-c2n[nH]c(=S)n2-c2ccc3ccccc3c2)ccn1
IV = c1ccc2cc(-n3ccnc3-c3ccncc3)ccc2c1
V = S=c1[nH]nc(-c2ccnc(NCC3CC3)c2)n1-c1ccc2ccccc2c1
Sort the 5 compounds by pIC50; largest first, smallest last. Provide your answer as the labels ordered per the instruction.
III, V, IV, II, I
(III: 6.30, V: 5.65, IV: 5.19, II: 4.72, I: 4.42)

P = c1ccc2cc(-c3ncncc3-c3ccncc3)ccc2c1
Q = S=c1[nH]nc(-c2ccncc2)n1-c1ccc2ccccc2c1
Could you check which of P and Q has a smaller value for pIC50? Indicate your choice by writing its label.
P

I = c1ccc2cc(-n3nccc3-c3ccncc3)ccc2c1
II = c1ccc2cc(-c3n[nH]cc3-c3ccncc3)ccc2c1
III = c1ccc2cc(-c3cnnn3-c3ccncc3)ccc2c1
Put the items in order so that reported pIC50 rises from first to last. Provide your answer as the labels ordered per the instruction.
III, I, II
(III: 4.73, I: 5.31, II: 6.06)

* * *

- Assay name: Oxidative metabolic stability in human liver microsomes assessed as compound remaining after 30 mins
- Type: ADME, Microsome
- Condition label: read-out: Stability
Measured parameter: remaining at 0.5 h (%)

Reference set, count: 3
{"Smiles code": "c1ccc2cc(-c3[nH]nnc3-c3ccncc3)ccc2c1", "Result units": "%", "Assay result": 44}
{"Smiles code": "Clc1nnn(-c2ccncc2)c1-c1ccc2ccccc2c1", "Result units": "%", "Assay result": 5}
{"Smiles code": "S=c1[nH]nc(-c2ccncc2)n1-c1ccc2ccccc2c1", "Result units": "%", "Assay result": 100}

I = c1ccc2cc(-n3nccc3-c3ccncc3)ccc2c1
II = c1ccc2cc(-n3cnnc3-c3ccncc3)ccc2c1
Hi there! Just curious which has the higher remaining at 0.5 h between I and II . Indicate your choice by writing its label.
II

* * *

- Assay name: Metabolic stability in mouse liver microsomes assessed as compound remaining after 60 mins in presence of UDPGA
- Format: ADME, Microsome
- Condition label: read-out: Stability
Measured parameter: remaining at 1 h (%)

{"Smiles code": "c1ccc2cc(-c3cnnn3-c3ccncc3)ccc2c1", "remaining at 1 h (%)": 90}
{"Smiles code": "c1ccc2cc(-n3cnnc3-c3ccncc3)ccc2c1", "remaining at 1 h (%)": 87}

A = S=c1[nH]nc(-c2ccncc2)n1-c1ccc2ccccc2c1
B = c1ccc2cc(-c3n[nH]cc3-c3ccncc3)ccc2c1
Hi there! Just curious which has the higher remaining at 1 h between A and B . Indicate your choice by writing its label.
B
(B: 100%, A: 1%)

* * *

- Assay name: Solubility of the compound
- Assay type: physicochemical
Measured parameter: solubility (µM)

Reference set, count: 5
{"Smiles code": "S=c1[nH]nc(-c2ccnc(Br)c2)n1-c1ccc2ccccc2c1", "Measured parameter": "solubility", "Assay result": 35}
{"Smiles code": "Clc1nnc(-c2ccncc2)n1-c1ccc2ccccc2c1", "Measured parameter": "solubility", "Assay result": 78}
{"Smiles code": "Fc1cnccc1-c1n[nH]c(=S)n1-c1ccc2ccccc2c1", "Measured parameter": "solubility", "Assay result": 35}
{"Smiles code": "Cc1nnc(-c2ccncc2)n1-c1ccc2ccccc2c1", "Measured parameter": "solubility", "Assay result": 100}
{"Smiles code": "Cc1cc(-c2n[nH]c(=S)n2-c2cnc3ccccc3c2)ccn1", "Measured parameter": "solubility", "Assay result": 100}

1 = Cc1cc(-c2n[nH]c(=S)n2-c2ccc3ccccc3c2)ccn1
2 = S=c1[nH]nc(-c2ccnc(NC3CCCCC3)c2)n1-c1ccc2ccccc2c1
Hi there! Just curious which has the higher solubility between 1 and 2 . Indicate your choice by writing its label.
1
(1: 100 µM, 2: 5 µM)

a = S=c1[nH]nc(-c2ccncc2)n1-c1ccc2ccccc2c1
b = S=c1[nH]nc(-c2ccncc2)n1-c1ccc2ncccc2c1
Hi there! Just curious which has the higher solubility between a and b . Indicate your choice by writing its label.
a

A = S=c1[nH]nc(-c2ccncc2)n1-c1cnc2ccccc2c1
B = FC(F)(F)c1nnc(-c2ccncc2)n1-c1ccc2ccccc2c1
Could you check which of A and B has a smaller value for solubility? Indicate your choice by writing its label.
B
